The measurements presented in this section are drawn from patent US20260242478A1.

- measured-on: T1, PSMA Fab (006 PSMA Fab) (biotinylated (site not stated))
- T1 construct: That the same Fab was used in the panning ELISA is inferred; also called Anti-PSMA Fab; anti-PSMA Fab
- experiment-notes: clonal phage ELISA on captured anti-PSMA Fab pre-incubated with PSMA antigen (competitor: PSMA)
readout-name: phage binding ELISA signal in the presence of PSMA

[[record]]
binder = "IEPHCVPAWMCTGF (Peptide-180 library clone, tested as clonal phage supernatant; not shown: fused to the pIII filament protein of the bacteriophage) [Phage-3433]"
numeric_result = 0.0805

[[record]]
binder = "LSTLCIPQWMCTGL (Peptide-180 library clone, tested as clonal phage supernatant; not shown: fused to the pIII filament protein of the bacteriophage) [Phage-3422]"
numeric_result = 0.0813

[[record]]
binder = "SFLRCEPMWMCLGF (Peptide-180 library clone, tested as clonal phage supernatant; not shown: fused to the pIII filament protein of the bacteriophage) [Phage-3432]"
numeric_result = 0.0816

